- TARGET: Sir2Af2 (Archaeoglobus fulgidus, UniProt O30124)
- Construct: host or cells: E. coli BL21DE3 Rosetta2
- Sequence (O30124 1-253): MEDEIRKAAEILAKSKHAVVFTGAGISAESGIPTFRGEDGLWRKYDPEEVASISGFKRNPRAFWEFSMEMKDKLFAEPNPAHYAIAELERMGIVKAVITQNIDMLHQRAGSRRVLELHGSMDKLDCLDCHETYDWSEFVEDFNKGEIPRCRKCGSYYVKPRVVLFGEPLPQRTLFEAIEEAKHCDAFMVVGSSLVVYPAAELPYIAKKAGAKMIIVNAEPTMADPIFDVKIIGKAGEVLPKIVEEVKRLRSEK
- PROTOCOL: MS-based peptide deacylation assay, Sir2Af2 wt
- Format: biochemical
- CONDITION PARAMETERS: IC50 nicotinamide inhibition, deacetylation, p53 peptide (Fig. S3)
RESULT TYPE: pIC50
Please report pIC50 as the negative decimal logarithm of the molar concentration, giving only the number.

Ask: Short answer please: pIC50, Sir2Af2 (Archaeoglobus fulgidus, UniProt O30124), entry NC(=O)c1cccnc1 [nicotinamide]
Reply: 2.68
